Target desc: T1, Human VEGFA165 (human, UniProt P15692-4 27-191)
T1 construct: treated as the same molecule; also called antigen VEGFA
T1 sequence (P15692 other isoform, or with tags, fused parts or gaps limits assumed): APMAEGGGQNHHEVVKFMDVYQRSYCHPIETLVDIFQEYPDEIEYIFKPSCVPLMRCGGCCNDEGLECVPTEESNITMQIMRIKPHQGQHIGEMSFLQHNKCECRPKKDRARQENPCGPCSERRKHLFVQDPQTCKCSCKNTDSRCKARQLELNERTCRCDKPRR
Method description: SPR Biacore 8K, VEGFA165 amine-coupled on CM5, nanobody as analyte, 1:1 model
Readout name: kon (M⁻¹ s⁻¹)

Binder	Readout name	Assay value
V31 (VHH, Purified with C-terminal GGGGS-6×His) VHH: QLQLVESGGGSVQPGGSLRLSCEVSGRTFASYTMGWFRQAPGKEREFVVAISKGGYKYDAVSLEARFTISKDNTKNTVYLQMNSLKPEDTAVYYCAGTRAYGSSRLRLAKTYEYWGQGTQVTVSS	kon	277000
V15 (VHH, Purified with C-terminal GGGGS-6×His; also called candidate antibody V15) VHH: QLQLVESGGGSVQPGGSLRLSCEVSGRTFASYTMGWFRQAPGKEREFVVAISKGGYKYDSVSLEARFTISKDNTKNTVYLQMNSLKPEDTAVYYCAGTRAYGSSRLRLAETYEYWGQGTQVTVSS	kon	347000
V13 (VHH, Purified with C-terminal GGGGS-6×His; also called candidate antibody V13) VHH: QLQLVESGGGSVQPGGSLRLSCEVSGRTFTSYTMGWFRQAPGKEREFVVAISKGGYKYDAVSLEARFTISKDNTKNTVYLQMNSLKPEDTAVYYCAGTRAYGSSRLRLADTYEYWGQGTQVTVSS	kon	386000
V41 (VHH, Purified with C-terminal GGGGS-6×His) VHH: QLQLVESGGGSVQPGGSLRLSCEVSGRTFSSYTMGWFRQAPGKEREFVVAISKGGYKYDSVSLEARFTISKDNTKNTVYLQMNSLKPEDTAVYYCAGTRAYGSSRLRLAKTYEYWGQGTQVTVSS	kon	331000
V43 (VHH, Purified with C-terminal GGGGS-6×His) VHH: QLQLVESGGGSVQPGGSLRLSCEVSGRTFTSYTMGWFRQAPGKEREFVVAISKGGYKYDSVSLEARFTISKDNTKNTVYLQMNSLKPEDTAVYYCAGTRAYGSSRLRLANTYEYWGQGTQVTVSS	kon	418000

[A] V29 (VHH, Purified with C-terminal GGGGS-6×His) VHH: QLQLVESGGGSVQPGGSLRLSCEVSGRTFSSYTMGWFRQAPGKEREFVVAISKGGYKYDSVSLEARFTISKDNTKNTVYLQMNSLKPEDTAVYYCAGTRAYGSSRLRLANTYEYWGQGTQVTVSS
[B] V36 (VHH, Purified with C-terminal GGGGS-6×His) VHH: QLQLVESGGGSVQPGGSLRLSCEVSGRTFASYTMGWFRQAPGKEREFVVAISKGGYKYDSVSLEARFTISKDNTKNTVYLQMNSLKPEDTAVYYCAGTRAYGSSRLRLADTYEYWGQGTQVTVSS
stdin: Recorded kon values differ for A and B ; which one is higher? Lab note: record the label of whichever item you select.
stdout: B
(B: 419000 M⁻¹ s⁻¹, A: 291000 M⁻¹ s⁻¹)
